Measurement Type: melting point

Known melting point results, listed for orientation:
{"Compound": "Cc1cc(SCc2cccc3cn(-c4ccc(C(F)(F)F)cc4)nc23)ccc1CCC(=O)O", "melting point": "88 to 90 °C"}
{"Compound": "Cc1cc(SC(C)c2cccc3cn(-c4ccc(C(F)(F)F)cc4)nc23)ccc1OC(C)(C)C(=O)O (racemic)", "melting point": "140 to 142 °C"}

Q. Look up melting point of CC(Sc1ccc(OC(C)(C)C(=O)O)cc1)c1ccc2cn(-c3ccc(C(F)(F)F)cc3)nc2c1 (racemic) and report it.
A. 130 to 132 °C

Q. Specify melting point for Cc1cc(SCc2cccc3cn(-c4ccc(C(F)(F)F)cc4)nc23)ccc1OC(C)(C)C(=O)O and stop.
A. 135 to 137 °C

====

Measurement Type: melting point

{"Compound": "O=C(O)Cc1csc2cc(OCc3ccc4cn(-c5ccc(C(F)(F)F)cc5)nc4c3)ccc12 [Example 25]", "melting point": "240 to 242 °C"}
{"Compound": "Cc1cc(SCc2cccc3nn(-c4ccc(C(F)(F)F)cc4)cc23)ccc1CCC(=O)O [Example 28]", "melting point": "55 to 59 °C"}
{"Compound": "CC(C)(Sc1ccc2c(CC(=O)O)csc2c1)c1cccc2cn(-c3ccc(C(F)(F)F)cc3)nc12 [Example 17]", "melting point": "120 to 122 °C"}
{"Compound": "CC(Oc1ccc(OC(C)(C)C(=O)O)cc1)c1ccc2nn(-c3ccc(C(F)(F)F)cc3)cc2c1 (racemic) [Example 70]", "melting point": "152 to 154 °C"}
{"Compound": "CC(C)(Sc1ccc(OCc2cccc3cn(-c4ccc(C(F)(F)F)cc4)nc23)cc1)C(=O)O [Example 38]", "melting point": "175 to 177 °C"}

Q. Please report melting point for the following compound: CC(Oc1ccc(OC(C)(C)C(=O)O)cc1)c1cccc2c1cnn2-c1ccc(C(F)(F)F)cc1 (racemic) [Example 85]
A. 99 to 102 °C

Q. Answer with the recorded melting point of Cc1cc(SCc2ccc3nn(-c4ccc(C(F)(F)F)cc4)cc3c2)ccc1OC(C)(C)C(=O)O [Example 64] only.
A. 143 to 145 °C

====

Overview of recorded melting point for various compounds

Here's what some known entries look like.
{"Compound": "CCc1cc(SCCc2cccc3cn(-c4ccc(C(F)(F)F)cc4)nc23)ccc1OCC(=O)O [Example 45]", "melting point": "115 to 117 °C"}
{"Compound": "Cc1cc(OC(C)c2ccc3nn(-c4ccc(C(F)(F)F)cc4)cc3c2)ccc1OC(C)(C)C(=O)O (racemic) [Example 66]", "melting point": "129 to 131 °C"}
{"Compound": "CC(Oc1ccc(SC(C)(C)C(=O)O)cc1)c1cccc2nn(-c3ccc(C(F)(F)F)cc3)cc12 (racemic) [Example 76]", "melting point": "138 to 140 °C"}
{"Compound": "O=C(O)Cc1csc2cc(SCc3ccc4cn(-c5ccc(C(F)(F)F)cc5)nc4c3)ccc12 [Example 23]", "melting point": "194 to 196 °C"}
{"Compound": "CC(C)(Sc1ccc(OCc2cccc3cnn(-c4ccc(C(F)(F)F)cc4)c23)cc1)C(=O)O [Example 97]", "melting point": "214 to 216 °C"}

Q. Give me measured melting point, please, for this compound: Cc1cc(SCc2ccc3cn(-c4ccc(C(F)(F)F)cc4)nc3c2)ccc1OCC(=O)O [Example 19]
A. 142 to 144 °C

Q. Find the measured melting point of CC(Oc1ccc(OC(C)(C)C(=O)O)cc1)c1ccc2cn(-c3ccc(C(F)(F)F)cc3)nc2c1 (racemic) [Example 58] and report it.
A. 144 to 146 °C
